Tested on: P388 mouse leukemia cells
Details: 92 h
Where a SMILES comes first, the peptide text is derived from it. [ ]: non-standard residue; d: D form. The star is where a group is joined. NHCH2CH2OH = OCCN*; For = O=C*
recorded_endpoint: cell viability/% (%)
Give bare numbers, in %.

INPUT: Query cell viability/% for CC(C)C[C@@H](NC(=O)[C@H](Cc1c[nH]c2ccccc12)NC(=O)[C@H](NC(=O)[C@H](Cc1c[nH]c2ccccc12)NC(=O)[C@H](NC(=O)[C@H](Cc1c[nH]c2ccccc12)NC(=O)[C@@H](CC(C)C)NC(=O)[C@@H](NC(=O)[C@H](NC(=O)[C@H](C)NC(=O)[C@H](NC(=O)[C@H](C)NC(=O)CNC(=O)[C@@H](NC=O)C(C)C)[C@H](C)O)C(C)C)C(C)C)C(C)C)C(C)C)C(=O)N[C@@H](Cc1c[nH]c2ccccc12)C(=O)NCCO [compound 2532] (For-VGA[dT]A[dV]V[dL]W[dV]W[dV]W[dL]W-NHCH2CH2OH)
OUTPUT: 100.0
